All values here come from the supplement of paper PMC6757056.

B1: library; a variant is named by its letters at N, in order (parent)
chain: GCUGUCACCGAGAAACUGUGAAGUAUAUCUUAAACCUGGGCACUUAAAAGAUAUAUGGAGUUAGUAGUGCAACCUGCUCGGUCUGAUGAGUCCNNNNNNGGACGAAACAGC

Variants of: B1
assay_text: normalized RNA/DNA level without ligand (relative to sTRSVctl = 100) (log10 (% of sTRSVctl)); HEK293T; ligand: cyclic di-GMP (c-di-GMP-II aptamer); higher = less ribozyme self-cleavage, higher mRNA level
assay_conditions: reporter: mCherry (pCS4076), ligand present: no
The reader will find reported normalized RNA/DNA level without ligand (log10) values listed item by item below.
metric_name: normalized RNA/DNA level without ligand (log10)

residue_sequence | readout_number
GCUGUCACCGAGAAACUGUGAAGUAUAUCUUAAACCUGGGCACUUAAAAGAUAUAUGGAGUUAGUAGUGCAACCUGCUCGGUCUGAUGAGUCCCUAUGCGGACGAAACAGC | 1.75
GCUGUCACCGAGAAACUGUGAAGUAUAUCUUAAACCUGGGCACUUAAAAGAUAUAUGGAGUUAGUAGUGCAACCUGCUCGGUCUGAUGAGUCCCCUUGUGGACGAAACAGC | 1.75
GCUGUCACCGAGAAACUGUGAAGUAUAUCUUAAACCUGGGCACUUAAAAGAUAUAUGGAGUUAGUAGUGCAACCUGCUCGGUCUGAUGAGUCCAUUUGGGGACGAAACAGC | 1.56
GCUGUCACCGAGAAACUGUGAAGUAUAUCUUAAACCUGGGCACUUAAAAGAUAUAUGGAGUUAGUAGUGCAACCUGCUCGGUCUGAUGAGUCCAGCCUAGGACGAAACAGC | 1.62
GCUGUCACCGAGAAACUGUGAAGUAUAUCUUAAACCUGGGCACUUAAAAGAUAUAUGGAGUUAGUAGUGCAACCUGCUCGGUCUGAUGAGUCCUGAAGGGGACGAAACAGC | 1.66
GCUGUCACCGAGAAACUGUGAAGUAUAUCUUAAACCUGGGCACUUAAAAGAUAUAUGGAGUUAGUAGUGCAACCUGCUCGGUCUGAUGAGUCCAUGGAUGGACGAAACAGC | 1.51
GCUGUCACCGAGAAACUGUGAAGUAUAUCUUAAACCUGGGCACUUAAAAGAUAUAUGGAGUUAGUAGUGCAACCUGCUCGGUCUGAUGAGUCCAUCAGGGGACGAAACAGC | 1.62
GCUGUCACCGAGAAACUGUGAAGUAUAUCUUAAACCUGGGCACUUAAAAGAUAUAUGGAGUUAGUAGUGCAACCUGCUCGGUCUGAUGAGUCCACUCACGGACGAAACAGC | 1.7
GCUGUCACCGAGAAACUGUGAAGUAUAUCUUAAACCUGGGCACUUAAAAGAUAUAUGGAGUUAGUAGUGCAACCUGCUCGGUCUGAUGAGUCCAAACCCGGACGAAACAGC | 1.72
GCUGUCACCGAGAAACUGUGAAGUAUAUCUUAAACCUGGGCACUUAAAAGAUAUAUGGAGUUAGUAGUGCAACCUGCUCGGUCUGAUGAGUCCGUACGCGGACGAAACAGC | 1.77
GCUGUCACCGAGAAACUGUGAAGUAUAUCUUAAACCUGGGCACUUAAAAGAUAUAUGGAGUUAGUAGUGCAACCUGCUCGGUCUGAUGAGUCCGUAACUGGACGAAACAGC | 1.7
GCUGUCACCGAGAAACUGUGAAGUAUAUCUUAAACCUGGGCACUUAAAAGAUAUAUGGAGUUAGUAGUGCAACCUGCUCGGUCUGAUGAGUCCUCCCGCGGACGAAACAGC | 1.8
GCUGUCACCGAGAAACUGUGAAGUAUAUCUUAAACCUGGGCACUUAAAAGAUAUAUGGAGUUAGUAGUGCAACCUGCUCGGUCUGAUGAGUCCUAGUCUGGACGAAACAGC | 1.71
GCUGUCACCGAGAAACUGUGAAGUAUAUCUUAAACCUGGGCACUUAAAAGAUAUAUGGAGUUAGUAGUGCAACCUGCUCGGUCUGAUGAGUCCGCUCCCGGACGAAACAGC | 1.71
GCUGUCACCGAGAAACUGUGAAGUAUAUCUUAAACCUGGGCACUUAAAAGAUAUAUGGAGUUAGUAGUGCAACCUGCUCGGUCUGAUGAGUCCCUGGAAGGACGAAACAGC | 1.26
GCUGUCACCGAGAAACUGUGAAGUAUAUCUUAAACCUGGGCACUUAAAAGAUAUAUGGAGUUAGUAGUGCAACCUGCUCGGUCUGAUGAGUCCAUGGGGGGACGAAACAGC | 1.56
GCUGUCACCGAGAAACUGUGAAGUAUAUCUUAAACCUGGGCACUUAAAAGAUAUAUGGAGUUAGUAGUGCAACCUGCUCGGUCUGAUGAGUCCUGUGGAGGACGAAACAGC | 1.58
GCUGUCACCGAGAAACUGUGAAGUAUAUCUUAAACCUGGGCACUUAAAAGAUAUAUGGAGUUAGUAGUGCAACCUGCUCGGUCUGAUGAGUCCUAGGAGGGACGAAACAGC | 1.59
GCUGUCACCGAGAAACUGUGAAGUAUAUCUUAAACCUGGGCACUUAAAAGAUAUAUGGAGUUAGUAGUGCAACCUGCUCGGUCUGAUGAGUCCUCCUAUGGACGAAACAGC | 1.63
GCUGUCACCGAGAAACUGUGAAGUAUAUCUUAAACCUGGGCACUUAAAAGAUAUAUGGAGUUAGUAGUGCAACCUGCUCGGUCUGAUGAGUCCCAAGAGGGACGAAACAGC | 1.6
GCUGUCACCGAGAAACUGUGAAGUAUAUCUUAAACCUGGGCACUUAAAAGAUAUAUGGAGUUAGUAGUGCAACCUGCUCGGUCUGAUGAGUCCGGGCUCGGACGAAACAGC | 1.88
GCUGUCACCGAGAAACUGUGAAGUAUAUCUUAAACCUGGGCACUUAAAAGAUAUAUGGAGUUAGUAGUGCAACCUGCUCGGUCUGAUGAGUCCUCUAGGGGACGAAACAGC | 1.81
GCUGUCACCGAGAAACUGUGAAGUAUAUCUUAAACCUGGGCACUUAAAAGAUAUAUGGAGUUAGUAGUGCAACCUGCUCGGUCUGAUGAGUCCCAAGACGGACGAAACAGC | 1.64
